Data credit: ChEMBL document CHEMBL4725250

Biological target: Cathepsin E (Homo sapiens)
Sequence (P14091 whole entry): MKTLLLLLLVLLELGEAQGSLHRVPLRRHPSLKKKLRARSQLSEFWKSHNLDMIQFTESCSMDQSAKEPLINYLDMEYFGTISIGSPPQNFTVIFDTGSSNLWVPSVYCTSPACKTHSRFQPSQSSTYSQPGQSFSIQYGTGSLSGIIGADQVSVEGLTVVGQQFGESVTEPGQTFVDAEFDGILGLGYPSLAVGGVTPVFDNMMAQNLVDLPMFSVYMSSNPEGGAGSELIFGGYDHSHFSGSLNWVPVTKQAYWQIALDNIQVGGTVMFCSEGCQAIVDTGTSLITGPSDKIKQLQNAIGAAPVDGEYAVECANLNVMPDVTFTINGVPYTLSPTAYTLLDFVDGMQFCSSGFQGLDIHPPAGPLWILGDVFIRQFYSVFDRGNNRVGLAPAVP
Measured quantity: IC50 (µM)

C[C@]1(c2cc(/C=C(\F)c3ccc(C#N)cn3)ccc2F)N=C(N)S[C@@]2(C(=O)N3CCOCC3)C[C@H]21 | 392

###

Test: Metabolic stability in human liver microsomes assessed as apparent intrinsic clearance
Assay type: ADME, Microsome
Settings: read-out: CLH
Just a reminder that ties go to No: only microsomal CLint strictly below 60 µL/min/mg counts as Yes.

C[C@]1(c2cc(/C=C(\F)c3ccc(C#N)cn3)ccc2F)N=C(N)S[C@@]2(C(=O)N3CCOCC3)C[C@H]21 | No
C[C@]1(c2cc(/C=C(\F)c3ccc(C#N)cn3)ccc2F)N=C(N)S[C@@]2(C(=O)N3CCCC3)C[C@H]21 | No
C[C@]1(c2cc(/C=C(\F)c3ccc(C#N)cn3)ccc2F)N=C(N)S[C@@]2(C(=O)N3CCCCC3)C[C@H]21 | No
C[C@]1(c2cc(/C=C(\F)c3cnc(C#N)cn3)ccc2F)N=C(N)S[C@@]2(C(=O)N3CCOCC3)C[C@H]21 | Yes
C[C@]1(c2cc(/C=C(\F)c3ccc(C#N)cn3)ccc2F)N=C(N)S[C@@]2(C(=O)N3CCC3)C[C@H]21 | Yes
CNC(=O)[C@]12C[C@H]1[C@@](C)(c1cc(/C=C(\F)c3ccc(C#N)cn3)ccc1F)N=C(N)S2 | Yes
C[C@]1(c2cc(/C=C(\F)c3ccc(C#N)cn3)ccc2F)N=C(N)S[C@@]2(S(C)(=O)=O)C[C@H]21 | Yes
COC[C@]12C[C@H]1[C@@](C)(c1cc(/C=C(\F)c3ccc(C#N)cn3)ccc1F)N=C(N)S2 | Yes
CC(=O)[C@]12C[C@H]1[C@@](C)(c1cc(/C=C(\F)c3ccc(C#N)cn3)ccc1F)N=C(N)S2 | Yes

###

Target: Beta-secretase 1 (Homo sapiens)
Sequence (P56817 whole entry): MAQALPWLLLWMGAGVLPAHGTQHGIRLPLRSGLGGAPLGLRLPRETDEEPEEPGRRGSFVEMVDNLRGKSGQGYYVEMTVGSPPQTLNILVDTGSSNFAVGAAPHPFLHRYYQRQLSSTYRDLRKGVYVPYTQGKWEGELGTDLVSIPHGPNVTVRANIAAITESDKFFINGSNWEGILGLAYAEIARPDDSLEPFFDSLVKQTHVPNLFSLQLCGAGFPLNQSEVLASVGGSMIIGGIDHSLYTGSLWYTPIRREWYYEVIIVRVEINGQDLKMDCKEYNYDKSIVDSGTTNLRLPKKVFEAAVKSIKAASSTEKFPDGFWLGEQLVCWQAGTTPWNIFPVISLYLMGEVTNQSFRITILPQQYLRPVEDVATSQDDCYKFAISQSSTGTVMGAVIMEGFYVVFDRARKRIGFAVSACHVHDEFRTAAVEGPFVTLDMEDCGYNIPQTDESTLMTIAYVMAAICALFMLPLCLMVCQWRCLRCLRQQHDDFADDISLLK
Each item that follows carries a reported IC50.
Measured quantity: IC50 (nM)

C[C@]1(c2cc(/C=C(\F)c3ccc(C#N)cn3)ccc2F)N=C(N)S[C@@]2(S(C)(=O)=O)C[C@H]21 | 2
CNC(=O)[C@]12C[C@H]1[C@@](C)(c1cc(/C=C(\F)c3ccc(C#N)cn3)ccc1F)N=C(N)S2 | 2
CC(=O)[C@]12C[C@H]1[C@@](C)(c1cc(/C=C(\F)c3ccc(C#N)cn3)ccc1F)N=C(N)S2 | 13
C[C@]1(c2cc(/C=C(\F)c3ccc(C#N)cn3)ccc2F)N=C(N)S[C@@]2(C(=O)N3CCC3)C[C@H]21 | 1
COC[C@]12C[C@H]1[C@@](CF)(c1cc(NC(=O)c3ccc(Cl)cn3)ccc1F)N=C(N)S2 | 6
C[C@]1(c2cc(/C=C(\F)c3ccc(C#N)cn3)ccc2F)N=C(N)S[C@@]2(C(=O)N3CCCC3)C[C@H]21 | 0.9
COC[C@]12C[C@H]1[C@@](CF)(c1cc(/C=C/c3ccc(Cl)cn3)ccc1F)N=C(N)S2 | 940
